Tested on: human NMT1 versus Leishmania donovani NMT
Test: Selectivity ratio of IC50 for human NMT1 to IC50 for Leishmania donovani NMT
Type: toxicity
Settings: read-out: Ratio IC50
Assign selectivity ratio to each entry below.

IN: Could you please provide reported selectivity ratio for Cc1ccccc1-c1ccc2nc(N(C)CCCN(C)C)nc(N(C)CCC#N)c2c1 ? Thanks!
OUT: > 150

IN: Could you please provide reported selectivity ratio for CCN(C)c1nc(N(C)CCCN(C)C)nc2ccsc12 ? Thanks!
OUT: > 8

IN: Could you please provide reported selectivity ratio for COC[C@@H]1CCCN1c1nc(N(C)C2CCNCC2)nc2ccsc12 ? Thanks!
OUT: 1.2

IN: Could you please provide reported selectivity ratio for CCN(C)c1nc(N(C)C2CCNCC2)nc2ccc(S(=O)(=O)Nc3c(C)nn(C)c3C)cc12 ? Thanks!
OUT: 5.2

IN: Could you please provide reported selectivity ratio for CN(C)CCCN(C)c1nc(N(C)CCC#N)c2cc(-c3ccccc3)ccc2n1 ? Thanks!
OUT: > 260

IN: Could you please provide reported selectivity ratio for COc1ccc2nc(N(C)CCCN(C)C)nc(N(C)CCC#N)c2c1 ? Thanks!
OUT: > 56

IN: Could you please provide reported selectivity ratio for CN(C)CCCN(C)c1nc(N(C)CCC#N)c2sccc2n1 ? Thanks!
OUT: > 170

IN: Could you please provide reported selectivity ratio for CC(C)CN1CCC(N(C)c2nc(N(C)CCC#N)c3sccc3n2)CC1 ? Thanks!
OUT: > 25

IN: Could you please provide reported selectivity ratio for CN1CCC(N(C)c2nc(N3CCC[C@H]3CC#N)c3sccc3n2)CC1 ? Thanks!
OUT: > 660

IN: Could you please provide reported selectivity ratio for CN(CCC#N)c1nc(N(C)C2CCNC2)nc2cc(C(C)(C)C)sc12 (stereo not given) ? Thanks!
OUT: > 18

IN: Could you please provide reported selectivity ratio for CN1CCC(N(C)c2nc(N(C)CCC#N)c3cc(Br)ccc3n2)C1 (stereo not given) ? Thanks!
OUT: > 18

IN: Could you please provide reported selectivity ratio for COc1ccc2nc(N(C)C3CCN(C)CC3)nc(N(C)CCC#N)c2c1 ? Thanks!
OUT: > 200

IN: Could you please provide reported selectivity ratio for CN(CCC#N)c1nc(N(C)C2CCNCC2)nc2ccsc12 ? Thanks!
OUT: 22

IN: Could you please provide reported selectivity ratio for COC[C@@H]1CCCN1c1nc(N(C)C2CCN(C)CC2)nc2ccsc12 ? Thanks!
OUT: > 120

IN: Could you please provide reported selectivity ratio for CN1CCC(N(C)c2nc(N(C)CCC#N)c3cc(Br)ccc3n2)CC1 ? Thanks!
OUT: > 20

IN: Could you please provide reported selectivity ratio for COc1ccc(-c2ccc3nc(N(C)CCCN(C)C)nc(N(C)CCC#N)c3c2)c(C)c1 ? Thanks!
OUT: > 15

IN: Could you please provide reported selectivity ratio for CCN(C)c1nc(N(C)CCCN(C)C)nc2ccc(S(=O)(=O)Nc3c(C)nn(C)c3C)cc12 ? Thanks!
OUT: 4.6

IN: Could you please provide reported selectivity ratio for CN(c1nc(N2CCC[C@H]2CC#N)c2sccc2n1)C1CCNCC1 ? Thanks!
OUT: 7.8

IN: Could you please provide reported selectivity ratio for CN(C)CCCN(C)c1nc(N(C)CCC#N)c2cccnc2n1 ? Thanks!
OUT: > 42

IN: Could you please provide reported selectivity ratio for CCN(C)c1nc(N(C)C2CCN(C)CC2)nc2ccc(S(=O)(=O)Nc3c(C)nn(C)c3C)cc12 ? Thanks!
OUT: 11
